# ASSAYED TARGET: human brain synaptosomal membranes (Homo sapiens, UniProt P30531)
# Sequence (P30531 whole entry): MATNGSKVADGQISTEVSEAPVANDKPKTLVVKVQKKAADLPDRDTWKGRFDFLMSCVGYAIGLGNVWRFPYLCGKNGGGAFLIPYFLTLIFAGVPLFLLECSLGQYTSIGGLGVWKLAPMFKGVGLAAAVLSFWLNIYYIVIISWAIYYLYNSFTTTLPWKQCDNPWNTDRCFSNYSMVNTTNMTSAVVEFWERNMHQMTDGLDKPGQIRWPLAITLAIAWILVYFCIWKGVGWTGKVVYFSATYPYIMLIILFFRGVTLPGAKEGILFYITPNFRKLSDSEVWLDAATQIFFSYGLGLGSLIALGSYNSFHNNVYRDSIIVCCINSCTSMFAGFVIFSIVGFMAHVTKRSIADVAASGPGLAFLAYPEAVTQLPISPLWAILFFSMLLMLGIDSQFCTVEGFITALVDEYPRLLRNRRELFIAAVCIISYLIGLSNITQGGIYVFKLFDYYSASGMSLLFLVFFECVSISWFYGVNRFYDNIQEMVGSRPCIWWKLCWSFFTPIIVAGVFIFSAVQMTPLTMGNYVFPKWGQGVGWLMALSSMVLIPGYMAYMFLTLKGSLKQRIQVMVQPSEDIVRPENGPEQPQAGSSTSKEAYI
REPORTED ENDPOINT: pKd
Field pKd (float): negative decimal logarithm of the concentration in molar.

Field pKd (human brain synaptosomal membranes (Homo sapiens, UniProt P30531)), entry NS(=O)(=O)N[C@H]1c2c(F)cc(F)cc2CC1(F)F [E2730] : 6.15

====

# ASSAYED TARGET: hBGT-1 (Homo sapiens, UniProt P48065)
# Sequence (P48065 whole entry): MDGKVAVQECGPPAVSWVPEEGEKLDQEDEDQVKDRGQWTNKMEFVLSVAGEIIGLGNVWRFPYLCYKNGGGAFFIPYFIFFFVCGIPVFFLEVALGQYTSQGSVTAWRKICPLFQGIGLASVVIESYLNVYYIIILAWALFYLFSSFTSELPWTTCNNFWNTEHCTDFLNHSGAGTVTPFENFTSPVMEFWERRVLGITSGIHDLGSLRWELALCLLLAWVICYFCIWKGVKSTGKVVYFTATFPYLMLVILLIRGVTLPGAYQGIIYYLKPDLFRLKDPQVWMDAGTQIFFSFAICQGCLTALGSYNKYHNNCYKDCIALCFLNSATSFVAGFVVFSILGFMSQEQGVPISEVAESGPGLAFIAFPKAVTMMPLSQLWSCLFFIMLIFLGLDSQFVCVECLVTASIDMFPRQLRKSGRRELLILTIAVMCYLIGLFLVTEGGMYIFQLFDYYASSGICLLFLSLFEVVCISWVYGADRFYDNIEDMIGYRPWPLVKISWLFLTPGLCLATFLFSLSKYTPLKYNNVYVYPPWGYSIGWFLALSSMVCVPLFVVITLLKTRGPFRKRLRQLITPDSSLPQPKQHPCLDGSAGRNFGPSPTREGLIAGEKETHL
# MEASUREMENT NOTES: [3H]GABA uptake in hBGT-1 stably expressing HEK293 cells
# RUN CONDITIONS: hBGT-1 HEK293 cells, 50 μM [3H]GABA
REPORTED ENDPOINT: pIC50
Field pIC50 (float): negative decimal logarithm of the concentration in molar.

Documented pIC50 of NS(=O)(=O)N[C@H]1c2c(F)cc(F)cc2CC1(F)F : 3.05
